Plant response rating, Morningglory by entry:
# Tested on: morningglory (Ipomoea coccinea)
# protocol_details: Test B pre-/postemergence plant response
# Assay type: in vivo
# test_settings: Postemergence, 250 g ai/ha; scale 0 to 100 (0 no effect, 100 complete control); 13 to 15 days
# From the text: […] Treated plants and controls were maintained in a greenhouse for 13 to 15 days, after which time all treated plants were visually evaluated and compared to controls. […]
assay_metric: Plant response rating, Morningglory

>>> print(df.to_string())
                                   molecule  assay_result
0  CCCn1c(-c2cccc(Br)c2)ncc(C(=O)C2=C(O)CCCC2=O)c1=O [Compound 141]            65
1  COCCCn1c(-c2cccc(F)c2)ncc(C(=O)C2=C(O)C3CCC(C3)C2=O)c1=O (centres unmarked) [Compound 238]           100
2  O=C(C1=C(O)C2CCC(C2)C1=O)c1cnc(-c2ccsc2)n(CC2CCCO2)c1=O (centres unmarked) [Compound 229]           100
3  COc1ccc(-n2c(-c3ccccc3)ncc(C(=O)C3=C(O)CCCC3=O)c2=O)cc1OC [Compound 218]            98
4  COCCn1c(-c2ccsc2)ncc(C(=O)C2=C(O)C3CCC(C3)C2=O)c1=O (centres unmarked) [Compound 228]           100
5  O=C1CCCC(O)=C1C(=O)c1cnc(-c2cc(F)cc(F)c2)n(C2CCCCC2)c1=O [Compound 181]           100
6  CCc1ccccc1-n1c(-c2ccccc2)ncc(C(=O)C2=C(O)CCCC2=O)c1=O [Compound 255]           100
7  O=C1CCCC(O)=C1C(=O)c1cnc(-c2ccc(F)cc2)n(C2CCCCC2)c1=O [Compound 197]           100

----------
Plant response rating, Nutsedge, Yellow by entry:
# Test system: yellow nutsedge (Cyperus esculentus)
# protocol_details: Test B pre-/postemergence plant response
# Format: in vivo
# test_settings: Postemergence, 62 g ai/ha; scale 0 to 100 (0 no effect, 100 complete control)
assay_metric: Plant response rating, Nutsedge, Yellow

In [3]: df
Out[3]:
                                   compound                             assay_metric  assay_result
0  COCCn1c(-c2cccc(C)c2)ncc(C(=O)C2=C(O)C3CCC(C3)C2=O)c1=O (stereo not drawn)  Plant response rating, Nutsedge, Yellow             5
1  COCCn1c(-c2ccsc2)ncc(C(=O)C2=C(O)C3CCC(C3)C2=O)c1=O (stereo not drawn)  Plant response rating, Nutsedge, Yellow            45
2  Cc1cc(-n2c(-c3cccc(F)c3)ncc(C(=O)C3=C(O)CCCC3=O)c2=O)ccc1F  Plant response rating, Nutsedge, Yellow            40
3  CCc1ccccc1-n1c(-c2ccccc2)ncc(C(=O)C2=C(O)CCCC2=O)c1=O  Plant response rating, Nutsedge, Yellow            15
4  O=C1CCCC(O)=C1C(=O)c1cnc(-c2ccc(F)cc2)n(C2CCCCC2)c1=O  Plant response rating, Nutsedge, Yellow            55
5  CCn1c(-c2ccccc2)ncc(C(=O)C2=C(O)C3CCC(C3)C2=O)c1=O (stereo not drawn)  Plant response rating, Nutsedge, Yellow            30

----------
# Tested on: large crabgrass (Digitaria sanguinalis)
# protocol_details: Test B pre-/postemergence plant response
# Format: in vivo
# test_settings: 62 g ai/ha, postemergence; 0 is no effect, 100 is complete control; 13 to 15 days
Note to self: use fulfilled only for Crabgrass, Large plant response rating (0 to 100 scale) readings below 80; a reading exactly at 80 still gets not fulfilled.

>>> print(df.to_string())
                               entry_smiles  assigned_class
0  CCCCn1c(-c2cc(F)cc(F)c2)ncc(C(=O)C2=C(O)CCCC2=O)c1=O   not fulfilled
1  CCCn1c(-c2cccs2)ncc(C(=O)C2=C(O)CCCC2=O)c1=O       fulfilled
2  Cc1ccccc1-c1ncc(C(=O)C2=C(O)CCCC2=O)c(=O)n1-c1ccccc1       fulfilled
3  CCCn1c(-c2cccc(C(F)(F)F)c2)ncc(C(=O)C2=C(O)CCCC2=O)c1=O       fulfilled
4  COCCCn1c(-c2cc(F)cc(F)c2)ncc(C(=O)C2=C(O)CCCC2=O)c1=O   not fulfilled
5  CC(C)CC(=O)OC1=C(C(=O)c2cnc(-c3ccccc3)n(-c3ccccc3)c2=O)C(=O)CCC1   not fulfilled

----------
# System: wheat (Triticum aestivum)
# protocol_details: Test A pre-/postemergence plant response
# Format: in vivo
# test_settings: Postemergence, 500 g ai/ha; 0 to 100 scale, 0 = no effect, 100 = complete control; approx. ten days
assay_metric: Plant response rating, Wheat

>>> df
                                   compound  assay_result
0  COCCCn1c(-c2cc(F)cc(F)c2)ncc(C(=O)C2=C(O)CCCC2=O)c1=O [Compound 120]            70
1  O=C1CCCC(O)=C1C(=O)c1cnc(-c2cccc(Cl)c2)n(-c2ccc(Cl)cc2)c1=O [Compound 64]            30
2  CCCCCn1c(-c2ccccc2)ncc(C(=O)C2=C(O)CCCC2=O)c1=O [Compound 89]            20
3  Cc1ccc(F)cc1-n1c(-c2ccccc2)ncc(C(=O)C2=C(O)CCCC2=O)c1=O [Compound 44]            20

----------
# Tested on: velvetleaf (Abutilon theophrasti)
# protocol_details: Test B pre-/postemergence plant response
# Assay type: in vivo
# test_settings: 62 g ai/ha, postemergence; 0 is no effect, 100 is complete control; 13 to 15 days
# Text: […] Treated plants and controls were maintained in a greenhouse for 13 to 15 days, after which time all treated plants were visually evaluated and compared to controls. […]
assay_metric: Velvetleaf plant response rating (0 to 100 scale)

                                   compound                        system_name  assay_result
0  COCCn1c(-c2cc(F)cc(F)c2)ncc(C(=O)C2=C(O)CCCC2=O)c1=O [Compound 119]  velvetleaf (Abutilon theophrasti)            80
1  CCCc1ncc(C(=O)C2=C(O)CCCC2=O)c(=O)n1CC1CCCO1 (centres unmarked) [Compound 74]  velvetleaf (Abutilon theophrasti)           100
2  COCCn1c(-c2cccc(C)c2)ncc(C(=O)C2=C(O)CCCC2=O)c1=O [Compound 117]  velvetleaf (Abutilon theophrasti)            85
3  COCCn1c(-c2cccc(Cl)c2)ncc(C(=O)C2=C(O)CCCC2=O)c1=O [Compound 147]  velvetleaf (Abutilon theophrasti)            80
4  CC(C)n1c(-c2ccccc2)ncc(C(=O)C2=C(O)CCCC2=O)c1=O [Compound 95]  velvetleaf (Abutilon theophrasti)            95
5  Cc1ccccc1-c1ncc(C(=O)C2=C(O)CCCC2=O)c(=O)n1-c1ccccc1 [Compound 82]  velvetleaf (Abutilon theophrasti)            90
6  COCCn1c(-c2ccccc2)ncc(C(=O)C2=C(O)CCCC2=O)c1=O [Compound 85]  velvetleaf (Abutilon theophrasti)            98
7  CCCCCn1c(-c2ccccc2)ncc(C(=O)C2=C(O)CCCC2=O)c1=O [Compound 89]  velvetleaf (Abutilon theophrasti)            95

----------
# System: corn (Zea mays)
# protocol_details: Test B pre-/postemergence plant response
# Type: in vivo
# test_settings: Preemergence, 62 g ai/ha; scale 0 to 100 (0 no effect, 100 complete control)
assay_metric: Plant response rating, Corn

In [3]: df
Out[3]:
                                   molecule  assay_result
0  Cc1cccc(Cl)c1-n1c(-c2ccccc2)ncc(C(=O)C2=C(O)CCCC2=O)c1=O [Compound 46]             0
1  COCCn1c(-c2cc(F)cc(F)c2)ncc(C(=O)C2=C(O)CCCC2=O)c1=O [Compound 119]            40
2  Cc1ccccc1-n1c(-c2ccccc2)ncc(C(=O)C2=C(O)CCCC2=O)c1=O [Compound 12]             0
3  COc1ccc(-n2c(-c3ccccc3)ncc(C(=O)C3=C(O)CCCC3=O)c2=O)cc1OC [Compound 218]             0
4  O=C1CCCC(O)=C1C(=O)c1cnc(-c2ccsc2)n(-c2ccccc2)c1=O [Compound 56]             0

----------
# System: bermudagrass (Cynodon dactylon)
# protocol_details: Test B pre-/postemergence plant response
# Type: in vivo
# test_settings: 62 g ai/ha, postemergence; 0 is no effect, 100 is complete control; 13 to 15 days
Bermudagrass plant response rating (0 to 100 scale) by entry:
assay_metric: Bermudagrass plant response rating (0 to 100 scale)

                               entry_smiles  assay_result
0  COCCn1c(-c2cccc(C)c2)ncc(C(=O)C2=C(O)CCCC2=O)c1=O            90
1  CC(C)n1c(-c2ccccc2)ncc(C(=O)C2=C(O)CCCC2=O)c1=O            75
2  CCCn1c(-c2cc(C)cc(C)c2)ncc(C(=O)C2=C(O)CCCC2=O)c1=O            90
3  CCCn1c(-c2cccc(C(F)(F)F)c2)ncc(C(=O)C2=C(O)CCCC2=O)c1=O            98
